Please respond with reported CC50 for every item in the list.
Experiment: Cytotoxicity against human MT4 cells assessed as reduction in cell viability by MTT assay
Type: toxicity, cell-based
Give bare numbers, in µM.

> print(dat)
                                   compound  readouttype  recordedmeasurement
1  CC(C)Sc1nc(C(N=[N+]=[N-])c2ccc(-c3ccccc3)cc2)c(C(C)C)c(=O)[nH]1 (stereo not given)         CC50                 84.2

// below: CC50 requested for another compound
// CC(C)Sc1nc(C(N=[N+]=[N-])c2ccc3ccccc3c2)c(C(C)C)c(=O)[nH]1 (stereo not given) : CC50 value = 4.79

Every entry's value here was drawn from ChEMBL document CHEMBL5352488.
